- Assay Summary: Plasma cholesterol and triglycerides in C57BL/6 mice (Olympus AU400e)
- Format: in vivo, mouse
- Assay Setup: Week 6, 50 mg/kg/week
Oligonucleotides are written 5' to 3', each unit as a sugar letter and its base; * is a phosphorothioate linkage, no mark a phosphodiester; rarer units and linkages stand in square brackets, end groups in braces. Plain capitals give the bases only. e = 2'-O-(2-methoxyethyl) (MOE); [5mC] = 5-methylcytosine; d = 2'-deoxy (DNA)
Quantity Measured: triglyceride levels (mg/dL)
Supply the numeric figure in mg/dL, leaving out any unit text.

INPUT: Consider the sequence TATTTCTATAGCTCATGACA (antisense eT*eA*eT*eT*eT*d[5mC]*dT*dA*dT*dA*dG*d[5mC]*dT*d[5mC]*dA*eT*eG*eA*e[5mC]*eA) [ISIS 447144] and give its measured triglyceride levels.
OUTPUT: 91

INPUT: Can you handle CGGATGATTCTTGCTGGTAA (antisense e[5mC]*eG*eG*eA*eT*dG*dA*dT*dT*d[5mC]*dT*dT*dG*d[5mC]*dT*eG*eG*eT*eA*eA) [ISIS 447114] next?
OUTPUT: 113

INPUT: Can you handle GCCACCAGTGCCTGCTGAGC (antisense eG*e[5mC]*e[5mC]*eA*e[5mC]*d[5mC]*dA*dG*dT*dG*d[5mC]*d[5mC]*dT*dG*d[5mC]*eT*eG*eA*eG*e[5mC]) [ISIS 447143] next?
OUTPUT: 95

INPUT: Can you handle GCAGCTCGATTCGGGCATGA (antisense eG*e[5mC]*eA*eG*e[5mC]*dT*d[5mC]*dG*dA*dT*dT*d[5mC]*dG*dG*dG*e[5mC]*eA*eT*eG*eA) [ISIS 447118] next?
OUTPUT: 88
